Below are compounds with their IC50 as measured on M. abscessus TrmD (Mycobacteroides abscessus, UniProt B1MDI3).
Sequence (B1MDI3 entry or part of it): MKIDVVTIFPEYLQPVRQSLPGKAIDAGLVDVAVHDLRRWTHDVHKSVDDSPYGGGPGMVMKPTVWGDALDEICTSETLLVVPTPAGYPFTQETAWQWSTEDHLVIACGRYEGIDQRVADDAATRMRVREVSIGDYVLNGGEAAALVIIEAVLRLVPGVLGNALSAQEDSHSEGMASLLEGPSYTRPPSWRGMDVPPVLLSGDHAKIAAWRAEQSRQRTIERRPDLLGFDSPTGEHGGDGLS
Dear colleague, please return just the value in nM, with no unit written.

Prompt line: Entry under review: CN1CCN(Cc2ccc(Cn3ccc4ccc(-c5[nH]nc(N)c5C#N)cc43)cc2)CC1 . Reported IC50?
Response line: 69

Prompt line: Param item: Nc1cc(-c2ccc3ccn(Cc4ccccn4)c3c2)[nH]n1
Response line: 33000

Prompt line: Param item: Nc1cc(-c2ccc3cc[nH]c3c2)[nH]n1
Response line: 230000

Prompt line: Param item: N#Cc1c(N)n[nH]c1-c1ccc2ccn(Cc3ccc(CN4CCCC4)cc3)c2c1
Response line: 30

Prompt line: Param item: N#Cc1c(N)n[nH]c1-c1ccc2ccn(Cc3ccccn3)c2c1
Response line: 310

Prompt line: Param item: Nc1cc(-c2ccc3ccn(Cc4ccc(CN5CCCC5)cc4)c3c2)[nH]n1
Response line: 1400
